System: hiPSC-CMs
Run parameters: human
Answer not met if Normalized CSI-Lite (CSINLITE) is under 0.6, and met if it is 0.6 or more.

Completed entries (count: 5):
Compound: CNC(=O)c1cc(Oc2ccc(NC(=O)Nc3ccc(Cl)c(C(F)(F)F)c3)cc2)ccn1
Class: not met
--
Compound: COc1cccc2c1C(=O)c1c(O)c3c(c(O)c1C2=O)C[C@@](O)(C(=O)CO)C[C@@H]3O[C@H]1C[C@H](N)[C@H](O)[C@H](C)O1
Class: not met
--
Compound: CS(=O)(=O)CCNCc1ccc(-c2ccc3ncnc(Nc4ccc(OCc5cccc(F)c5)c(Cl)c4)c3c2)o1
Class: not met
--
Compound: Cc1cn(-c2cc(NC(=O)c3ccc(C)c(Nc4nccc(-c5cccnc5)n4)c3)cc(C(F)(F)F)c2)cn1
Class: not met
--
Compound: COc1cc2nccc(Oc3ccc(NC(=O)C4(C(=O)Nc5ccc(F)cc5)CC4)cc3)c2cc1OC [Cabozantinib]
Class: met

*Q* Does the compound "C=CC(=O)N1CCC[C@@H](n2nc(-c3ccc(Oc4ccccc4)cc3)c3c(N)ncnc32)C1" have recorded Normalized CSI-Lite (CSINLITE) that is 0.6 or more?
*A* not met

*Q* Please check the record "CCN(CC)CCNC(=O)c1c(C)[nH]c(/C=C2\C(=O)Nc3ccc(F)cc32)c1C" and state if its Normalized CSI-Lite (CSINLITE) is at or above 0.6.
*A* not met

*Q* Dear colleague, could you confirm whether "C#Cc1cccc(Nc2ncnc3cc(OCCOC)c(OCCOC)cc23)c1" has Normalized CSI-Lite (CSINLITE) at or above 0.6?
*A* not met

====

Tested on: hiPSC-CMs
Run parameters: 0 to 1; average of normalized CoB and LD50 corrected by Cmax, without EC or AE
# note: exactly 0.2 is not below, so it is no; use yes for Normalized CSI-Lite (CSINLITE) strictly under it

Test smiles: CNC(=O)c1cc(Oc2ccc(NC(=O)Nc3ccc(Cl)c(C(F)(F)F)c3)c(F)c2)ccn1
Class: yes

*Q* Given "Cc1ccc(Nc2nccc(N(C)c3ccc4c(C)n(C)nc4c3)n2)cc1S(N)(=O)=O" , is recorded Normalized CSI-Lite (CSINLITE) strictly lower than 0.2?
*A* no

*Q* Bench note: check whether "CC(C)(C)c1nc(-c2cccc(NS(=O)(=O)c3c(F)cccc3F)c2F)c(-c2ccnc(N)n2)s1" shows Normalized CSI-Lite (CSINLITE) below 0.2
*A* no

*Q* Determine whether this compound shows Normalized CSI-Lite (CSINLITE) lower than 0.2 (ties excluded): "Cc1ccc(C(=O)Nc2ccc(CN3CCN(C)CC3)c(C(F)(F)F)c2)cc1C#Cc1cnc2cccnn12"
*A* no

*Q* Does the reported Normalized CSI-Lite (CSINLITE) of the following compound sit strictly below 0.2? "CCCS(=O)(=O)Nc1ccc(F)c(C(=O)c2c[nH]c3ncc(-c4ccc(Cl)cc4)cc23)c1F"
*A* yes

*Q* Is the reported Normalized CSI-Lite (CSINLITE) for "C[C@@H](Oc1cc(-c2cnn(C3CCNCC3)c2)cnc1N)c1c(Cl)ccc(F)c1Cl" strictly below 0.2?
*A* yes

*Q* Criterion: Normalized CSI-Lite (CSINLITE) strictly below 0.2. Is it met by "COc1cc2c(Nc3ccc(Br)cc3F)ncnc2cc1OCC1CCN(C)CC1" ?
*A* yes

*Q* Is Normalized CSI-Lite (CSINLITE) of "COc1cc(Nc2c(C#N)cnc3cc(OCCCN4CCN(C)CC4)c(OC)cc23)c(Cl)cc1Cl" strictly below 0.2?
*A* no

====

In this section we review reported Normalized CSI-Lite (CSINLITE) values for a set of molecules.
Test system: hiPSC-CMs
Run parameters: human
Output spec: single numeric token, no unit.

Some entries whose results are on file:
Test smiles: Cc1nc(Nc2ncc(C(=O)Nc3c(C)cccc3Cl)s2)cc(N2CCN(CCO)CC2)n1
Assay target: hiPSC-CMs
Observed value: 0.599
//
Test smiles: CNC(=O)c1ccccc1Sc1ccc2c(/C=C/c3ccccn3)n[nH]c2c1
Assay target: hiPSC-CMs
Observed value: 1.000
//
Test smiles: CC(=O)Nc1cccc(-n2c(=O)n(C3CC3)c(=O)c3c(Nc4ccc(I)cc4F)n(C)c(=O)c(C)c32)c1
Assay target: hiPSC-CMs
Observed value: 1.000

Next item in the queue.
*Q* Please look at "CN(C)C/C=C/C(=O)Nc1cc2c(Nc3ccc(F)c(Cl)c3)ncnc2cc1O[C@H]1CCOC1" and tell me its recorded Normalized CSI-Lite (CSINLITE) on hiPSC-CMs.
*A* 0.515
